- subject.of.test: UniProt P51531
- protocol.description: MSD SMARCA2 degradation in A549 cell line
- Type: cell-based
- experimental.conditions: A549, A549 cells, 24 h
- Description: Cells were seeded into 96-well plates (A549 cells: 2×10^4 cells/well/100 ul media) abd incubated overnight. The next day, 200 nl compound were added into the intermediate plate with Echo (Labcyte 550) from source plate containing a 3-fold serial dilution from top concentration of 1 mM. […] The MSD plate was washed three times with 150 ul/well of TBST and 150 ul/well of 2×MSD reading buffer diluted from 4× (MSD, R92TC-2) with water was added. Lastly, the MSD instrument was read. […]
parameter: Dmax

molecule="Cc1ncsc1-c1ccc(CNC(=O)[C@@H]2C[C@@H](O)CN2C(=O)[C@@H](NC(=O)[C@H]2CC[C@H](N3CCC(c4cnc(N5C6CCC5CN(c5cc(-c7ccccc7O)nnc5N)C6)nc4)CC3)CC2)C(C)(C)C)cc1 [I-355]" value_measured="> 90%"
molecule="Cn1c(=O)n(C2CCC(=O)NC2=O)c2cccc(CCCOC3CCN(Cc4cccc(C#Cc5cc(NC(=O)Nc6cc(F)ncc6CO)ccn5)c4)CC3)c21 (stereo not drawn) [I-315]" value_measured="< 50%"
molecule="Cc1ncsc1-c1ccc(CNC(=O)[C@@H]2C[C@@H](O)CN2C(=O)[C@@H](NC(=O)CCN2CCC(c3cnc(N4C5CCC4CN(c4cc(-c6ccccc6O)nnc4N)C5)nc3)CC2)C(C)(C)C)cc1 [I-449]" value_measured="< 50%"

* * *

- subject.of.test: SMARCA2 (Homo sapiens)
- Sequence (P51531 whole entry): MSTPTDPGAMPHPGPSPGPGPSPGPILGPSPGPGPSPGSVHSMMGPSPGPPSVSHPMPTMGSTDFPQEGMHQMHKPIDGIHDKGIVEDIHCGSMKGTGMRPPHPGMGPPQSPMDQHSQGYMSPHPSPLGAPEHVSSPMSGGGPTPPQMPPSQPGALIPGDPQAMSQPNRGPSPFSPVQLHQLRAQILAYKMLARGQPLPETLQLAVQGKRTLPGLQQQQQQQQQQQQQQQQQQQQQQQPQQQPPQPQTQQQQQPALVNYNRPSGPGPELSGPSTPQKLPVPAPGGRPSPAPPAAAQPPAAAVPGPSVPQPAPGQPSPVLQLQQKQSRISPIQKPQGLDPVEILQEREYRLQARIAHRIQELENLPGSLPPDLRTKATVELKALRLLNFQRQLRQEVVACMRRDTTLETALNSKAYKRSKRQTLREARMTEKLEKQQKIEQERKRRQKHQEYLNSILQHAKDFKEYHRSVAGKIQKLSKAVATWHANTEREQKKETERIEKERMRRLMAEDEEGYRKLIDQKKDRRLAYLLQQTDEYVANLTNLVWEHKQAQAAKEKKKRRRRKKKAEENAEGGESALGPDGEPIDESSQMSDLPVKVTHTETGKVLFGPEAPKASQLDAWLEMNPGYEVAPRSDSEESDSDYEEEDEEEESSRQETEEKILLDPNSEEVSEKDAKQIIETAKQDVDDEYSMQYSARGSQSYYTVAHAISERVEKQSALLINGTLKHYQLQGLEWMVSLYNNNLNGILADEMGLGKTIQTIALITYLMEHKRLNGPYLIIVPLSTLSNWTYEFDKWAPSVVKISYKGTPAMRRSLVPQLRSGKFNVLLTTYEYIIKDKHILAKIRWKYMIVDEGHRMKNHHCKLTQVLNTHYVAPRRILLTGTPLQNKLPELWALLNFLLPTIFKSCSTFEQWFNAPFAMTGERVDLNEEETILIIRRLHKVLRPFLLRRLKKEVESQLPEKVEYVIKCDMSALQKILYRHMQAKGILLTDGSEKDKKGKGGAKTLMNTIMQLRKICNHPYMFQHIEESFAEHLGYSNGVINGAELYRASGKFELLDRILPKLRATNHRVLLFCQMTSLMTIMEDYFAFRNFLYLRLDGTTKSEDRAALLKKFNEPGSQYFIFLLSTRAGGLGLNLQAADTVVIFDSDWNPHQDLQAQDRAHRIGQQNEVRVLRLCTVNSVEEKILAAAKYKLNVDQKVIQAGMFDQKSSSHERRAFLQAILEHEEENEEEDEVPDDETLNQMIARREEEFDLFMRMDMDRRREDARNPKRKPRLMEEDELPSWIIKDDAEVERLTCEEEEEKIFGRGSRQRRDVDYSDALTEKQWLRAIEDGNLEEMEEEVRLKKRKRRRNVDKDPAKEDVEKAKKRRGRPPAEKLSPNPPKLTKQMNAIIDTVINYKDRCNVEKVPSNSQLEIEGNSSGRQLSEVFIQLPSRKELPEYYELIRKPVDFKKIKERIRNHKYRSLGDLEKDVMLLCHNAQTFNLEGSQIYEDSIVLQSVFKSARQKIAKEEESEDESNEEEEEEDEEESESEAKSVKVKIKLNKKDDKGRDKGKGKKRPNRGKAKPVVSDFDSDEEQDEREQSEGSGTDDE
- protocol.description: MSD SMARCA2 degradation in NCI-H1299 cell line (24 h)
- Assay type: cell-based
- Parameters: HC: NCI-H1299 cells treated with DMSO; host or cells: NCI-H1299
- experimental.conditions: NCI-H1299, NCI-H1299 cells
parameter: Dmax

compound="Cn1c(=O)n(C2CCC(=O)NC2=O)c2ccc(CCCCNC(=O)Cc3cnc(N4C5CCC4CN(c4cc(-c6ccccc6O)nnc4N)C5)nc3)cc21 (stereo not drawn)" parameter=Dmax value_measured="> 90%"
compound="CN1C(=O)CCC(n2c(=O)n(C)c3cc(CCCCCCCc4cnc(N5C6CCC5CN(c5cc(-c7ccccc7O)nnc5N)C6)nc4)ccc32)C1=O (stereo not drawn)" parameter=Dmax value_measured="< 50%"
compound="Cn1c(=O)n(C2CCC(=O)NC2=O)c2ccc(CN3CC4(CCN(Cc5cnc(N6C7CCC6CN(c6cc(-c8ccccc8O)nnc6N)C7)nc5)CC4)C3)cc21 (stereo not drawn)" parameter=Dmax value_measured="> 90%"
compound="Cn1c(=O)n(C2CCC(=O)NC2=O)c2ccc(CCCN3CCN(Cc4ccc(-c5cc(-c6ccccc6O)nnc5N)cc4)CC3)cc21 (stereo not drawn)" parameter=Dmax value_measured="50 to 70%"
compound="Cn1c(=O)n(C2CCC(=O)NC2=O)c2cccc(CCCOCCOCCOCCN3CCN(Cc4ccc(-c5cc(-c6ccccc6O)nnc5N)cc4)CC3)c21 (stereo not drawn)" parameter=Dmax value_measured="< 50%"
compound="Cn1c(=O)n(C2CCC(=O)NC2=O)c2cccc(CCCCCc3cn(Cc4cccc(N5C[C@H]6C[C@@H]5CN6/C=C/C(=O)c5ccccc5O)n4)nn3)c21 (stereo partly drawn)" parameter=Dmax value_measured="< 50%"
compound="Nc1nnc(-c2ccccc2O)cc1N1CCN(c2ccc(CNCCOCCOCCCc3ccc4c(c3)oc(=O)n4C3CCC(=O)NC3=O)cc2)CC1 (stereo not drawn)" parameter=Dmax value_measured="> 90%"
compound="Cn1c(=O)n(C2CCC(=O)NC2=O)c2cccc(CCCCCCCOc3cccc(CN4CCN(c5cc(-c6ccccc6O)nnc5N)CC4)c3)c21 (stereo not drawn)" parameter=Dmax value_measured="< 50%"
compound="Cn1c(=O)n(C2CCC(=O)NC2=O)c2ccc(CN3CCN(CCO[C@H]4C[C@H](NCc5ccc(N6CCN(c7cc(-c8ccccc8O)nnc7N)CC6)cc5)C4)CC3)cc21 (stereo partly drawn)" parameter=Dmax value_measured="70 to 90%"
compound="CN(CCOCCOCCCc1ccc2c(c1)oc(=O)n2C1CCC(=O)NC1=O)Cc1ccc(N2CCN(c3cc(-c4ccccc4O)nnc3N)CC2)cc1 (stereo not drawn)" parameter=Dmax value_measured="70 to 90%"
compound=Cc1ncsc1-c1ccc(CNC(=O)[C@@H]2C[C@@H](O)CN2C(=O)[C@@H](NC(=O)N2CCC(c3cnc(N4C5CCC4CN(c4cc(-c6ccccc6O)nnc4N)C5)nc3)CC2)C(C)(C)C)cc1 parameter=Dmax value_measured="70 to 90%"
compound="CN1C(=O)CCC(n2c(=O)n(C)c3c(CCCOCCOCCNCc4ccc(N5CCN(c6cc(-c7ccccc7O)nnc6N)CC5)cc4)cccc32)C1=O (stereo not drawn)" parameter=Dmax value_measured="< 50%"
